- experiment_summary: NCI Yeast Anticancer Drug Screen. Data for the cln2 rad14 strain (AID 165);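 note: 0% = growth equal to vehicle treated cultures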
- condition_label: S. cerevisiae cln2 rad14 strain, at 50.0 µM, active compounds read high
The panel holds about 79,000 compounds, 15% with a hit somewhere; the sample as a whole holds those more often.
Give true (1) when the value for growth inhibition is at least 10%. Give false (0) when it is less.

>>> df
                                   compound  class_name
0                       Oc1cccc2ccc(Br)nc12   false (0)
1                              O=CN(CCO)CCO    true (1)
2    CC(C)(NC(=O)c1cc(Cl)c2ccccc2c1O)C(=O)O    true (1)
3                CCCSc1nnc(SCCC)c2[nH]cnc12   false (0)
4  CCOC(O)(NC(=O)C(C(F)(F)F)C(F)(F)F)C(F)(F)F (configuration not stated)   false (0)
5                      CCCC(=O)Oc1cccc(C)c1    true (1)
6  Cc1onc(-c2c(F)cccc2Cl)c1C(=O)OCc1c(F)cccc1Cl    true (1)
